Origin of the recorded values: ChEMBL document CHEMBL1137624

Melanocortin receptor 4 (Homo sapiens) pKi data
Sequence (P32245 whole entry): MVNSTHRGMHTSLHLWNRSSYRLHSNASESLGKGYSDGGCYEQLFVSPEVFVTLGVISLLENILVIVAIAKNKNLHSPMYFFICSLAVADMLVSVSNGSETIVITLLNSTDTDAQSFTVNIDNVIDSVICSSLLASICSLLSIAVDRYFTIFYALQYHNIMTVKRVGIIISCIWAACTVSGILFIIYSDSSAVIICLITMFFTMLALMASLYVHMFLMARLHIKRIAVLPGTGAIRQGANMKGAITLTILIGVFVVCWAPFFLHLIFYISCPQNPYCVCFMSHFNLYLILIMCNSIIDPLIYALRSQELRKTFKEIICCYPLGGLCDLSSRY
FYI, pKi means -log10 of a concentration in mol per litre.

>>> reported_result("CC(C)C[C@H](N)c1cc(C(F)(F)F)ccc1N1CCN(C(=O)[C@@H]2CN(C(=O)c3ccccc3)C[C@H]2c2ccc(Cl)cc2)CC1")
7.52
>>> reported_result("Cc1ccc(N2CCN(C(=O)[C@@H]3CN(C4CCOCC4)C[C@H]3c3ccc(Cl)cc3)CC2)c([C@@H](N)C(C)C)c1")
7.96
>>> reported_result("CC(C)[C@H](N)c1cccc(F)c1N1CCN(C(=O)[C@@H]2CN(Cc3ccccc3)C[C@H]2c2ccc(Cl)cc2)CC1")
6.47
>>> reported_result("COCC(C)N1C[C@@H](C(=O)N2CCN(c3ccc(C)cc3[C@@H](N)C(C)C)CC2)[C@H](c2ccc(Cl)cc2)C1 (some centres not stated)")
7.19
>>> reported_result("CC(C)[C@H](N)c1cccc(F)c1N1CCN(C(=O)[C@H]2CN(Cc3ccccc3)C[C@@H]2c2ccc(Cl)cc2)CC1")
7.01

Reported pKi (Melanocortin receptor 4 (Homo sapiens)) for entry CCCC(=O)N1C[C@@H](C(=O)N2CCN(c3c(F)cccc3[C@@H](N)C(C)C)CC2)[C@H](c2ccc(Cl)cc2)C1 is 6.59

Reported pKi (Melanocortin receptor 4 (Homo sapiens)) for entry Cc1ccc(N2CCN(C(=O)[C@@H]3CN(C(=O)CCCCc4ccccc4)C[C@H]3c3ccc(Cl)cc3)CC2)c([C@@H](N)C(C)C)c1 is 7.19

----------
# target_entity: Melanocortin receptor 4 (Homo sapiens)
# test_protocol: Displacement of [125I]NDP-MSH from human MC4 receptor expressed in HEK293 cells
# Format: cell-based
parameter: Ki (nM)
Number only, in nM; omit the unit.

>>> reported_result("CC(=O)N1C[C@@H](C(=O)N2CCN(c3c(F)cccc3[C@@H](N)C(C)C)CC2)[C@H](c2ccc(Cl)cc2)C1")
220
>>> reported_result("Cc1ccc(N2CCN(C(=O)[C@@H]3CN(C4CCN(C(C)C)CC4)C[C@H]3c3ccc(Cl)cc3)CC2)c([C@@H](N)C(C)C)c1")
18
>>> reported_result("CCC(=O)N1C[C@@H](C(=O)N2CCN(c3ccc(C)cc3[C@@H](N)C(C)C)CC2)[C@H](c2ccc(Cl)cc2)C1")
59
>>> reported_result("CC(C)[C@H](N)c1cccc(F)c1N1CCN(C(=O)[C@@H]2CN(C3CCCCC3)C[C@H]2c2ccc(Cl)cc2)CC1")
9.3
>>> reported_result("CC(C)[C@H](N)c1cccc(F)c1N1CCN(C(=O)[C@@H]2CN(C3CCCC3)C[C@H]2c2ccc(Cl)cc2)CC1")
26
>>> reported_result("CC(C)[C@H](N)c1cccc(F)c1N1CCN(C(=O)C2CN(Cc3ccccc3)CC2c2ccc(Cl)cc2)CC1 (some centres not stated)")
94
>>> reported_result("CC(C)[C@H](N)c1cccc(F)c1N1CCN(C(=O)[C@@H]2CN(CCO)C[C@H]2c2ccc(Cl)cc2)CC1")
580
>>> reported_result("CC(C)[C@H](N)c1cccc(F)c1N1CCN(C(=O)[C@@H]2CN(C(=O)C3CCCCC3)C[C@H]2c2ccc(Cl)cc2)CC1")
350
>>> reported_result("CC(C)[C@H](N)c1cc(C(F)(F)F)ccc1N1CCN(C(=O)[C@@H](Cc2ccc(Cl)cc2Cl)N2CCCC2=O)CC1")
4.5
>>> reported_result("Cc1ccc(N2CCN(C(=O)[C@@H]3CN(C(=O)C4CCC4)C[C@H]3c3ccc(Cl)cc3)CC2)c([C@@H](N)C(C)C)c1")
78

Reported Ki (Melanocortin receptor 4 (Homo sapiens)) for entry CC(C)[C@H](N)c1cccc(F)c1N1CCN(C(=O)[C@@H]2CN(C)C[C@H]2c2ccc(Cl)cc2)CC1 is 81

Reported Ki (Melanocortin receptor 4 (Homo sapiens)) for entry Cc1ccc(N2CCN(C(=O)[C@H]3CN(C4CCOCC4)C[C@@H]3c3ccc(Cl)cc3)CC2)c([C@@H](N)C(C)C)c1 is 8.6
